Ref: patent US20240084003A1

Known log10 of Kd of a selection of binders
- Study Target: T1, rhesus monkey CD22-ECD-His protein (rhesus monkey, UniProt H9G1X2 18-686)
- T1 construct: extracellular domain; also called monkey CD22 protein
- T1 sequence: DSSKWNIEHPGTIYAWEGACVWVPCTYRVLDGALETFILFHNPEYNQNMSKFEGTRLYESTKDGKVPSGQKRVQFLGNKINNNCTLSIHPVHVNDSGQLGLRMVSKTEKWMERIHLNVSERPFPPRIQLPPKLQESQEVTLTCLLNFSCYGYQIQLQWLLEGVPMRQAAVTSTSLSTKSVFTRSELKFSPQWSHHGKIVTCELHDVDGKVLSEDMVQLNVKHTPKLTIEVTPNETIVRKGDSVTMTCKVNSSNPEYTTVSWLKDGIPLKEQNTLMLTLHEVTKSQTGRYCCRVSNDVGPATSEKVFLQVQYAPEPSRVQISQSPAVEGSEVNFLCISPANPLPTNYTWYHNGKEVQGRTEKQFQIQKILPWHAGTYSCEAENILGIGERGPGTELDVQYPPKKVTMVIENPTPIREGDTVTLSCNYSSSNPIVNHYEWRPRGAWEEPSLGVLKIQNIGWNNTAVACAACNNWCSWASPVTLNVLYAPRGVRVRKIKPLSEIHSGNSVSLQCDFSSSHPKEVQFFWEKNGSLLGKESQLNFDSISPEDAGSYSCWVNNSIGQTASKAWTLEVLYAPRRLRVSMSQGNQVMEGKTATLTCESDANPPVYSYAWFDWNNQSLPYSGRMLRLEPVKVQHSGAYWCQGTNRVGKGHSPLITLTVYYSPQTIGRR
- Run Description: SPR (Biacore), antibody captured on Protein A chip, rhesus CD22 in solution
Would you kindly interpret these values as log10 of Kd expressed in nM?

What value of log10 of Kd has been reported for the following binder? F1.250.16 (antibody, human IgG1, kappa, V domains shown, Chimeric IgG1 kappa) VH: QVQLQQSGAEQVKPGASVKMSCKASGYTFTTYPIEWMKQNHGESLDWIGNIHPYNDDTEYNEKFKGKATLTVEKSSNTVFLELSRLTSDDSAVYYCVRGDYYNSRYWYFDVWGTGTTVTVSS VL: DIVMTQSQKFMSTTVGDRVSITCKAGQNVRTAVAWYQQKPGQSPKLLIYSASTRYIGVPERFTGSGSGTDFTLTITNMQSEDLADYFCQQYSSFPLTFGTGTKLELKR
0.54
